System: SK-N-BE(2c) (NET ++++)
experimentNotes: cells
Assay type: cell-based
experimentalConditions: 48 hr assay (24 h exposure + 24 h recovery), Table 3; read-out: Cytotoxicity IC50
pIC50: −log10 of the molar value.
readoutType: pIC50

>>> valueobserved("N=C(N)NCc1cccc(I)c1 [MIBG, meta-iodobenzylguanidine]")
3.85
>>> valueobserved("CCSSCc1ccc(CNC(=N)N)cc1I [MIBG-SS-ethyl]")
4.56
>>> valueobserved("N=C(N)NCc1ccc(CCl)c(I)c1 [Chloromethyl-MIBG]")
5.33

###

experimentNotes: in vitro
Assay type: cell-based, human
experimentalConditions: human, 48 hr assay (24 h exposure + 24 h recovery), Table 3; read-out: Cytotoxicity IC50
readoutType: IC50 at 48 h (µM)

>>> valueobserved("N[C@@H](Cc1ccc(N(CCCl)CCCl)cc1)C(=O)O [Melphalan]")
126
